- protocol_description: PAMPA (parallel artificial membrane permeability assay)
- Assay type: in vitro ADME
- reported_conditions: PAMPA; membrane permeation rate (Pe); 50 mM MOPSO buffer pH 6.5 with 5.0% glycocholic acid, 37° C., 18 hours; read-out: iPAMPA Pe
Starred links: 1 amine or outer side, 2 acyl side, 3 side chain; linkers in the order of their positions; H or OH if unused. Positions of bridges follow the written chain, without caps; N, C: chain ends. Non-standard residues stand in square brackets, D forms with d. Residues, ends and D or L forms follow the SMILES beside them. *: point of attachment. NMePhe(3-Cl) = CN[C@@H](Cc1cccc(Cl)c1)C(=O)O; NMeF = CN[C@@H](Cc1ccccc1)C(=O)O; NMeGABA = CN(CCCC(=O)[*:2])[*:1]; NMeI = CC[C@H](C)[C@H](NC)C(=O)O; NMeβAla = CN(CCC(=O)[*:2])[*:1]; NMeL = CN[C@@H](CC(C)C)C(=O)O; NMeV = CN[C@H](C(=O)O)C(C)C; NMeA = CN[C@@H](C)C(=O)O; Piperidide = C1CCN(*)CC1; dNMeA = CN[C@H](C)C(=O)O; β3hA = C[C@H](N)CC(=O)O; Sar = CNCC(=O)O; tBu = CC(C)(C)*
Assign labels as follows, please: Condition met for Papp at 18 hours, 50 µM below 20 ×10⁻⁶ cm/s; Condition not met for Papp at 18 hours, 50 µM equal to or exceeding 20 ×10⁻⁶ cm/s.

Task item: Is Papp at 18 hours, 50 µM strictly under 20 ×10⁻⁶ cm/s for the entry CC[C@H](C)[C@H]1C(=O)N[C@@H](C)CC(=O)N(C)[C@H](C)C(=O)N(C)[C@@H](Cc2ccccc2)C(=O)N(C)[C@@H](CC(C)C)C(=O)N[C@@H]([C@@H](C)O)C(=O)N(C)CC(=O)N[C@@H](COC(C)(C)C)C(=O)N(C)[C@@H](CC(C)C)C(=O)N1C [DP-789] (cyclo([NMeF][NMeL]T[Sar]S(tBu)[NMeL][NMeI][β3hA][dNMeA])) ?
Reply: Condition not met

Task item: Is Papp at 18 hours, 50 µM strictly under 20 ×10⁻⁶ cm/s for the entry CC(C)C[C@@H]1NC(=O)[C@H](CC(C)C)N(C)C(=O)[C@H](C(C)C)N(C)C(=O)[C@H](C)NC(=O)CN(C)C(=O)[C@H](Cc2ccccc2)NC(=O)[C@H]([C@@H](C)O)NC(=O)[C@H](CC(C)C)N(C)C(=O)[C@H](C)N(C)C(=O)C[C@@H](C(=O)N2CCCCC2)NC(=O)[C@H](CC(C)C)N(C)C1=O [DP-479] ([NMeA][NMeL]TF[Sar]A[NMeV][NMeL]L[NMeL]D-Piperidide; lactam N-11) ?
Reply: Condition not met

Task item: Is Papp at 18 hours, 50 µM strictly under 20 ×10⁻⁶ cm/s for the entry CC(C)C[C@@H]1NC(=O)[C@H](CC(C)C)N(C)C(=O)[C@H]([C@@H](C)O)NC(=O)CCCN(C)C(=O)C[C@@H](C(=O)N2CCCCC2)NC(=O)[C@H](COC(C)(C)C)NC(=O)[C@H](Cc2ccccc2)N(C)C1=O [DP-715] ([NMeGABA]T[NMeL]L[NMeF]S(tBu)D-Piperidide; lactam N-7) ?
Reply: Condition not met

Task item: Is Papp at 18 hours, 50 µM strictly under 20 ×10⁻⁶ cm/s for the entry CC[C@H](C)[C@@H]1NC(=O)[C@H](CC(C)C)N(C)C(=O)[C@H](C)NC(=O)CN(C)C(=O)[C@H](Cc2ccccc2)NC(=O)[C@H]([C@@H](C)O)NC(=O)[C@H](CC(C)C)N(C)C(=O)CCN(C)C(=O)C[C@@H](C(=O)N2CCCCC2)NC(=O)[C@H](CC(C)C)N(C)C(=O)[C@H](CC(C)C)N(C)C1=O [DP-413] ([NMeβAla][NMeL]TF[Sar]A[NMeL]I[NMeL][NMeL]D-Piperidide; lactam N-11) ?
Reply: Condition not met

Task item: Is Papp at 18 hours, 50 µM strictly under 20 ×10⁻⁶ cm/s for the entry CC(C)C[C@@H]1NC(=O)[C@H](CC(C)C)N(C)C(=O)[C@H](Cc2ccccc2)N(C)C(=O)[C@@H](C)N(C)C(=O)C[C@@H](C(=O)N2CCCCC2)NC(=O)[C@H](Cc2ccccc2)N(C)C(=O)[C@H](C)N(C)C(=O)[C@H](C)NC(=O)CN(C)C(=O)[C@H](C)N(C)C(=O)[C@H]([C@@H](C)O)NC(=O)[C@H](C(C)C)N(C)C1=O [DP-466] ([dNMeA][NMeF][NMeL]L[NMeV]T[NMeA][Sar]A[NMeA][NMeF]D-Piperidide; lactam N-12) ?
Reply: Condition met

Task item: Is Papp at 18 hours, 50 µM strictly under 20 ×10⁻⁶ cm/s for the entry CC[C@H](C)[C@H](NC(=O)[C@H](CC(C)C)N(C)C(=O)[C@@H](NC(=O)[C@H](Cc1ccccc1)N(C)C(=O)[C@@H]1CC(=O)N(C)CCC(=O)N(C)[C@@H](Cc2cccc(Cl)c2)C(=O)N[C@@H](CC(C)C)C(=O)N[C@@H]([C@@H](C)O)C(=O)N[C@@H](CC(C)C)C(=O)N[C@@H]([C@@H](C)CC)C(=O)N(C)[C@@H](CC(C)C)C(=O)N(C)[C@@H](CC(C)C)C(=O)N1)[C@@H](C)CC)C(=O)N1CCCCC1 [DP-941] ([NMeβAla][NMePhe(3-Cl)]LTLI[NMeL][NMeL]D[NMeF]I[NMeL]I-Piperidide; lactam N-9) ?
Reply: Condition met

Task item: Is Papp at 18 hours, 50 µM strictly under 20 ×10⁻⁶ cm/s for the entry CC(C)C[C@H]1C(=O)N(C)[C@@H](Cc2ccccc2)C(=O)N(C)[C@@H](Cc2ccccc2)C(=O)N[C@@H]([C@@H](C)O)C(=O)N(C)[C@@H](C)C(=O)N(C)[C@@H](CC(C)C)C(=O)N[C@H](C(=O)N2CCCCC2)CC(=O)N(C)[C@@H](C)C(=O)N(C)[C@@H](CC(C)C)C(=O)N(C)[C@@H](CC(C)C)C(=O)N[C@@H](C)C(=O)N1C [DP-158] ([NMeA][NMeL][NMeL]A[NMeL][NMeF][NMeF]T[NMeA][NMeL]D-Piperidide; lactam N-11) ?
Reply: Condition not met

Task item: Is Papp at 18 hours, 50 µM strictly under 20 ×10⁻⁶ cm/s for the entry CC(C)C[C@H]1C(=O)N(C)[C@@H](CC(C)C)C(=O)N[C@H](C(=O)N(C)[C@@H](Cc2ccccc2)C(=O)N[C@@H](C)C(=O)N2CCCCC2)CC(=O)N(C)CCC(=O)N(C)[C@@H](C)C(=O)N(C)[C@@H](CC(C)C)C(=O)N[C@@H]([C@@H](C)O)C(=O)N(C)[C@@H](Cc2ccccc2)C(=O)N[C@@H](C(C)C)C(=O)N(C)CC(=O)N1C [DP-194] ([NMeβAla][NMeA][NMeL]T[NMeF]V[Sar][NMeL][NMeL]D[NMeF]A-Piperidide; lactam N-10) ?
Reply: Condition not met

Task item: Is Papp at 18 hours, 50 µM strictly under 20 ×10⁻⁶ cm/s for the entry CC(C)C[C@H]1C(=O)N[C@@H](C)C(=O)N(C)[C@@H](C)C(=O)N[C@H](C(=O)N(C)[C@@H](Cc2ccccc2)C(=O)N[C@@H](C)C(=O)N2CCCCC2)CC(=O)N(C)[C@H](C)C(=O)N(C)[C@@H](C(C)C)C(=O)N(C)[C@@H](C)C(=O)N[C@@H](Cc2ccccc2)C(=O)N[C@@H]([C@@H](C)O)C(=O)N(C)[C@@H](C)C(=O)N1C [DP-354] ([dNMeA][NMeV][NMeA]FT[NMeA][NMeL]A[NMeA]D[NMeF]A-Piperidide; lactam N-10) ?
Reply: Condition met

Task item: Is Papp at 18 hours, 50 µM strictly under 20 ×10⁻⁶ cm/s for the entry CC[C@H](C)[C@@H]1NC(=O)[C@H](CC(C)C)N(C)C(=O)CN(C)C(=O)[C@H]([C@@H](C)O)NC(=O)[C@H](C)N(C)C(=O)C[C@@H](C(=O)N(C)[C@@H](C)C(=O)N2CCC[C@H]2C(=O)N[C@@H](C)C(=O)N2CCCCC2)NC(=O)[C@H](CC(C)C)N(C)C(=O)[C@H](Cc2ccccc2)N(C)C(=O)[C@H](CC(C)C)N(C)C1=O [DP-661] ([NMeA]T[Sar][NMeL]I[NMeL][NMeF][NMeL]D[NMeA]PA-Piperidide; lactam N-9) ?
Reply: Condition not met
